# Tested on: Pectinesterase (EC 3.1.1.11)
# Protocol details: Pectinesterase/p-Nitrophenyl acetate reaction gas run (spectrophotometric, 400 nm)
# Assay type: biochemical, Orange Peel
# Experimental setup: 35° C.; maximum effect, percent change compared to air
Give measured Pectinesterase % Rate Difference for each item. Keep answers brief.
Report only the number, with the unit % understood.

Query: Requested read-out: Pectinesterase % Rate Difference. Entry: [Ar] [Ar, argon]
Reply: 0.8

Query: Query (molecule): [Ne] [Ne, neon] ; field requested: Pectinesterase % Rate Difference
Reply: 1.6

Query: Pectinesterase % Rate Difference for [Kr] [Kr, krypton] ?
Reply: 0.8

Query: I'd like to know its Pectinesterase % Rate Difference. The molecule in question is [Xe] [Xe, xenon]
Reply: 3.3

====

Task for the reader: assign each of the following molecules its reported Pectinase % Rate Difference.
# Test system: Pectinase (EC 3.2.1.15)
# Protocol details: Pectinase/Pectin reaction gas run (spectrophotometric, 400 nm)
# Assay type: biochemical, Aspergillus niger
# Experimental setup: 25° C.; maximum effect, percent change compared to air

Query: Entry `[Kr]` : reported Pectinase % Rate Difference = ?
Reply: 2.1%

Query: Requested read-out: Pectinase % Rate Difference. Entry: `[Ar]`
Reply: 6.4%

Query: Value lookup for Pectinase % Rate Difference; key = `[Xe]`
Reply: 0.0%

Query: Entry under review: `[Ne]` . Reported Pectinase % Rate Difference?
Reply: 4.3%

====

# Tested on: Pectinesterase (EC 3.1.1.11)
# Protocol details: Pectinesterase/p-Nitrophenyl acetate reaction gas run (spectrophotometric, 400 nm)
# Assay type: biochemical, Orange Peel
# Experimental setup: 25° C.; maximum effect, percent change compared to air
Quantity kind: Pectinesterase % Yield Difference (%)
Provide the reading as a plain figure in %.

Query: What value of Pectinesterase % Yield Difference has been recorded for this entry: [Kr] [Kr, krypton]
Reply: 8.3

Query: Any idea what Pectinesterase % Yield Difference was measured for [Ar] [Ar, argon] ?
Reply: 2.1

Query: Field request: Pectinesterase % Yield Difference | item: [Ne] [Ne, neon]
Reply: 0.37

Query: I have this compound here, [Xe] [Xe, xenon] , and I need its recorded Pectinesterase % Yield Difference.
Reply: 0.70

====

What Pectinesterase % Rate Difference was measured for each of the following?
# System: Pectinesterase (EC 3.1.1.11)
# Protocol details: Pectinesterase/p-Nitrophenyl acetate reaction gas run (spectrophotometric, 400 nm)
# Type: biochemical, Orange Peel
# Experimental setup: 10° C.; maximum effect, percent change compared to air
Record the value in %, omitting the unit from your answer.

Query: Sample [Kr] [Kr, krypton] — what was its Pectinesterase % Rate Difference?
Reply: 32.3

Query: Dear colleague, I am looking for the recorded Pectinesterase % Rate Difference of the following molecule: [Ne] [Ne, neon]
Reply: 19.4

Query: I am curious: what Pectinesterase % Rate Difference value has been reported for [Ar] [Ar, argon] ?
Reply: 5.0

Query: Would you mind telling me what Pectinesterase % Rate Difference value was observed for [Xe] [Xe, xenon] ?
Reply: 29.0

====

# System: Pectinase (EC 3.2.1.15)
# Protocol details: Pectinase/Pectin reaction gas run (spectrophotometric, 400 nm)
# Format: biochemical, Aspergillus niger
# Experimental setup: 35° C.; maximum effect, percent change compared to air
Give measured Pectinase % Yield Difference for each item. Keep answers brief.
Please provide the amount together with its unit, number first.

Query: What value of Pectinase % Yield Difference has been recorded for this entry: `[Ar]`
Reply: 8.0%

Query: For the compound `[Kr]` , what Pectinase % Yield Difference is on record?
Reply: 1.4%

Query: Pectinase % Yield Difference; subject: `[Ne]`
Reply: 3.3%

Query: Tell me the measured Pectinase % Yield Difference of `[Xe]` , please.
Reply: 7.0%
